# MEASUREMENT_TARGET: T1, Human CD137 ECD (human)
# T1 construct: entry includes C-terminal His-tag and biotin acceptor peptide; also called human CD137 extracellular domain; 4-1BB
# T1 sequence (chain, as listed by the source limits assumed): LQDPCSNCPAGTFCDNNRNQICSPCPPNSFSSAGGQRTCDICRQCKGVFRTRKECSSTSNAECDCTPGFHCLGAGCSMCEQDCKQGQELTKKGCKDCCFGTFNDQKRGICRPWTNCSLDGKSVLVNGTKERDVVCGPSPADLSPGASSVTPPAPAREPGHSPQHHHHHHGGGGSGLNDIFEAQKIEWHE
# ASSAY: Biacore SPR, vs parent H183/L072
REPORTED_ENDPOINT: fold change of affinity (fold)

{"columns": ["BINDER", "REPORTED_ENDPOINT", "RECORDED_VALUE"],
 "data": [
  ["H183/L072 VL N53M (antibody, name in Kabat numbering, V domains shown, Dual-Ig) VH: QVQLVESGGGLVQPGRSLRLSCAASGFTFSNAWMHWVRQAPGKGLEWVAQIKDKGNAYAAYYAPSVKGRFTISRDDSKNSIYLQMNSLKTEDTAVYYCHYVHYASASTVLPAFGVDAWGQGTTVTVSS VL: DIVMTQSPLSLPVTPGEPASISCQASQELVHMNRNTYLHWYQQKPGQAPRLLIYKVSMRFPGVPDRFSGSGSGTDFTLKISRVEAEDVGVYYCAQGTSVPFTFGQGTKLEIK", "fold change of affinity", 0.1],
  ["H183/L072 VL K50F (antibody, name in Kabat numbering, V domains shown, Dual-Ig) VH: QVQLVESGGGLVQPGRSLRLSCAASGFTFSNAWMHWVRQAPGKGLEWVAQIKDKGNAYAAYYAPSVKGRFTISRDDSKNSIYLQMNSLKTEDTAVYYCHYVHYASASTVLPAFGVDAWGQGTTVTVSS VL: DIVMTQSPLSLPVTPGEPASISCQASQELVHMNRNTYLHWYQQKPGQAPRLLIYFVSNRFPGVPDRFSGSGSGTDFTLKISRVEAEDVGVYYCAQGTSVPFTFGQGTKLEIK", "fold change of affinity", 0.1],
  ["H183/L072 VL K50A (antibody, name in Kabat numbering, V domains shown, Dual-Ig) VH: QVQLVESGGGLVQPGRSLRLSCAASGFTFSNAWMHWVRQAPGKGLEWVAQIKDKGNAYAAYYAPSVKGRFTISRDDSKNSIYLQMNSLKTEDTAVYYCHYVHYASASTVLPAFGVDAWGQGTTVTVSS VL: DIVMTQSPLSLPVTPGEPASISCQASQELVHMNRNTYLHWYQQKPGQAPRLLIYAVSNRFPGVPDRFSGSGSGTDFTLKISRVEAEDVGVYYCAQGTSVPFTFGQGTKLEIK", "fold change of affinity", 0.1]
]}

The reported measurements were obtained from patent US20210388087A1.
